Tested on: Porcine atria myofibrils (atrial myosin ATPase)
Assay: Myofibril ATPase assay, porcine atria myofibrils
Type: biochemical
Settings: Y75 value (no ‡ mark); porcine atria myofibrils
MEASURED_ATTRIBUTE: Atrial EC25 (nM)

I. C[C@@H](NC(=O)C1(c2cc3c(F)c(F)ccc3[nH]c2=O)CC1)c1ncc(C#N)cn1 (single isomer, unassigned) [compound 2549]
II. Cc1cc([C@@H](C)NC(=O)Cc2c(C)c3c(C)c(F)ccc3[nH]c2=O)ncc1F (single isomer, unassigned) [compound 2076]
III. Cc1nc(C#N)ncc1[C@@H](C)NC(=O)Cc1c(C)c2cc(F)ccc2[nH]c1=O [compound 1052]
# descending Atrial EC25 order for the listed compounds Give the order by naming the labels one after another as requested.
II, I, III
